Experiment: Rat pharmacokinetics in vivo
Conditions: rat, in vivo; male Sprague Dawley rats, IV 1 mg/kg
endpoint_name: Vd

Form field: reported Vd of O=C(N[C@H]1N=C(c2ccccc2)c2ccccc2NC1=O)c1cnn(C2CCOCC2)c1-c1ccc(NC2CC2)nc1F [Example 20]
2.9 L/kg

Field request: Vd | item: CC(C)Nc1ccc(-c2c(C(=O)N[C@H]3N=C(c4ccccc4)c4cccc(F)c4NC3=O)cnn2C2CCOCC2)c(F)n1 [Example 22]
1.9 L/kg

So what does the record say about Vd for O=C(N[C@H]1N=C(c2ccccc2)c2cccc(F)c2NC1=O)c1cn(C2CCOCC2)nc1-c1ccc(NC2CC2)nc1F [Example 32] ?
1.1 L/kg

Given the entry CCNc1ccc(-c2c(C(=O)N[C@H]3N=C(c4ccccc4)c4cccc(F)c4NC3=O)cnn2C2CCOCC2)c(F)n1 [Example 24] , report its measured Vd.
1.4 L/kg

====

Assign half-life to each entry below.
Test: Rat pharmacokinetics in vivo
Details: rat, in vivo; male Sprague Dawley rats, IV 1 mg/kg; read-out: IV t½ (converted)
Write it as a number; the unit h goes unstated.

Entry CC(C)Nc1ccc(-c2c(C(=O)N[C@H]3N=C(c4ccccc4)c4ccccc4NC3=O)cnn2C2CCOCC2)c(F)n1 : reported half-life = ?
2.2

Look at this molecule and give its reported half-life. CC(C)(C)n1cc(C(=O)N[C@H]2N=C(c3ccccc3)c3cccc(F)c3NC2=O)c(-c2ccc(NC3CC3)nc2F)n1
1.8

Report half-life for O=C(N[C@H]1N=C(c2ccccc2)c2ccccc2NC1=O)c1cnn(C2CCOCC2)c1-c1ccc(NC2CC2)nc1F please.
1.5

# lookup: half-life of CCn1ncc(C(=O)N[C@H]2N=C(c3ccccc3)c3ccccc3NC2=O)c1-c1ccc(NC2CC2)nc1F
1.3

# input molecule: CCNc1ccc(-c2c(C(=O)N[C@H]3N=C(c4ccccc4)c4cccc(F)c4NC3=O)cnn2C2CCOCC2)c(F)n1 ; wanted: its half-life
1.3

Which half-life is listed for O=C(N[C@H]1N=C(c2ccccc2)c2cccc(F)c2NC1=O)c1cnn(C2COC2)c1-c1ccc(NC2CC2)nc1F ?
1.7

Dear colleague, I am looking for the recorded half-life of the following molecule: CCn1ncc(C(=O)N[C@H]2N=C(c3ccccc3)c3cccc(F)c3NC2=O)c1-c1ccc(NC2CC2)nc1F
3.2

What does the record list as half-life for O=C(N[C@H]1N=C(c2ccccc2)c2cccc(F)c2NC1=O)c1cn(C2CCOCC2)nc1-c1ccc(NC2CC2)nc1F ?
1.2

# input molecule: CCn1cc(C(=O)N[C@H]2N=C(c3ccccc3)c3cccc(F)c3NC2=O)c(-c2ccc(NC3CC3)nc2F)n1 ; wanted: its half-life
2.6

What half-life value was documented for this molecule, CCn1cc(C(=O)N[C@H]2N=C(c3ccccc3)c3ccccc3NC2=O)c(-c2ccc(NC3CC3)nc2F)n1 ?
1.3

// lookup half-life for CC(C)Nc1ccc(-c2c(C(=O)N[C@H]3N=C(c4ccccc4)c4cccc(F)c4NC3=O)cnn2C2CCOCC2)c(F)n1
2.4

Recorded half-life of O=C(N[C@H]1N=C(c2ccccc2)c2cccc(F)c2NC1=O)c1cnn(C2CCOCC2)c1-c1ccc(NC2CC2)nc1F , please.
1.7

For the molecule CCn1ncc(C(=O)N[C@H]2N=C(c3ccccc3)c3ccccc3NC2=O)c1-c1ccc(NC(C)C)nc1F , what half-life is on record?
2.2
